Here the recorded remaining at 1 h is given for each entry.
- Tgt: UniProt P00791
- Sequence (P00791 60-385): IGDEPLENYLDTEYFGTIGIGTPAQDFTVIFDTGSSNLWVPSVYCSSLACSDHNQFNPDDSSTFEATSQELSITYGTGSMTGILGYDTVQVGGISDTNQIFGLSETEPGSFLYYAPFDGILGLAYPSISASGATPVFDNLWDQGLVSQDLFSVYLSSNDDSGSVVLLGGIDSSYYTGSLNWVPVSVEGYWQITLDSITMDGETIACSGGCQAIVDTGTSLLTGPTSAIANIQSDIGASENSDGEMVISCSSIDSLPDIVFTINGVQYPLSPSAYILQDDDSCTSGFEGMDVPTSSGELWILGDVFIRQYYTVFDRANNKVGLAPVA
- Measurement Protocol: in vitro
- Assay Context: simulated gastric fluid, pH 1.2
Starred links: 1 amine or outer side, 2 acyl side, 3 side chain; linkers in the order of their positions; H or OH if unused. Non-standard residues stand in square brackets, D forms with d. Residues, ends and D or L forms follow the SMILES beside them. X2 = CC(C)C[C@H](NC(=S)[C@@H](CC(C)C)N[*:1])C(=O)[*:2]; X3 = CC(C)C[C@H](N[*:1])C(=S)N[C@H](CC(C)C)C(=O)[*:2]; X5 = CC(C)C[C@H](NC(=S)[C@H](CC(C)C)N[*:1])C(=O)[*:2]; X4 = CC(C)C[C@H](N[*:1])C(=S)N1CCC[C@@H]1C(=O)[*:2]; dNMeL = CN[C@H](CC(C)C)C(=O)O

| Molecule | remaining at 1 h (%) |
| --- | --- |
| CC(C)C[C@@H]1NC(=O)[C@H](Cc2ccc(O)cc2)NC(=O)[C@H]2CCCN2C(=S)[C@H](CC(C)C)NC(=O)[C@H](CC(C)C)NC(=O)[C@@H](CC(C)C)NC1=O [10c] (cyclo(L[dL]L[X4]Y)) | 31 |
| CC(C)C[C@@H]1NC(=O)[C@H](Cc2ccc(O)cc2)NC(=O)[C@H]2CCCN2C(=O)[C@H](CC(C)C)NC(=S)[C@H](CC(C)C)NC(=O)[C@@H](CC(C)C)NC1=O [10b] (cyclo(L[dL][X5][dP]Y)) | 33 |
| CC(C)C[C@@H]1NC(=O)[C@@H](CC(C)C)NC(=S)[C@H](CC(C)C)NC(=O)[C@H](Cc2ccc(O)cc2)NC(=O)[C@H]2CCCN2C(=O)[C@H](CC(C)C)NC1=O [10f] (cyclo(LL[dP]Y[X3])) | 54 |
| CC(C)C[C@@H]1NC(=O)[C@H](Cc2ccc(O)cc2)NC(=O)[C@H]2CCCN2C(=O)[C@H](CC(C)C)NC(=O)[C@H](CC(C)C)NC(=S)[C@@H](CC(C)C)NC1=O [10a] (cyclo(L[dP]YL[X2])) | 42 |
| CC(C)C[C@@H]1NC(=O)[C@@H](CC(C)C)N(C)C(=O)[C@H](CC(C)C)NC(=O)[C@H](Cc2ccc(O)cc2)NC(=O)[C@H]2CCCN2C(=O)[C@H](CC(C)C)NC1=O [10g] (cyclo(LL[dP]YL[dNMeL])) | 24 |
| CC(C)C[C@@H]1NC(=O)[C@H](Cc2ccc(O)cc2)NC(=O)[C@H]2CCCN2C(=O)[C@H](CC(C)C)NC(=O)[C@H](CC(C)C)NC(=O)[C@@H](CC(C)C)NC1=O [compound 10, cyclo(-D-Leu^1-Leu-Leu-D-Pro-Tyr-Leu^6-)] (cyclo(LL[dP]YL[dL])) | 22 |
